- TESTED_TARGET: T1, human CD3 on human T cells (Jurkat) (human, UniProt P07766 23-207; P04234 22-171; P09693 23-182)
- T1 construct: whole, on cells; also called huCD3+; cell surface CD3 on human (Jurkat) T cells
- T1 sequence (P07766 23-207, chain 1 of 3): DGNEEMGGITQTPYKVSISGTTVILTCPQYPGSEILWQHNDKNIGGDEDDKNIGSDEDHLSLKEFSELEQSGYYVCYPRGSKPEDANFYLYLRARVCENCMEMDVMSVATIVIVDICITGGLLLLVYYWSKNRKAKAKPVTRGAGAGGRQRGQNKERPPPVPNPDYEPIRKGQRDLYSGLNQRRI
- T1 sequence (P04234 22-171, chain 2 of 3): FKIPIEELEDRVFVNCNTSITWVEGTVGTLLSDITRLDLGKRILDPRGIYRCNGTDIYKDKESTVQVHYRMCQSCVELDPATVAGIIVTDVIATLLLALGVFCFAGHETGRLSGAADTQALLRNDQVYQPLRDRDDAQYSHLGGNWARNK
- T1 sequence (P09693 23-182, chain 3 of 3): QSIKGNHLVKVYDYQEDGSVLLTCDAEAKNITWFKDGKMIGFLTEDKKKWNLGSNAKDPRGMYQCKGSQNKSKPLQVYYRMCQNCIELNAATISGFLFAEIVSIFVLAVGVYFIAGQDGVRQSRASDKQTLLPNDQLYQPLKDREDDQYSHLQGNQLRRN
- ASSAY_OVERVIEW: flow cytometry, Jurkat cells, 200 nM antibody
OBSERVATION_TYPE: MFI
One number for each entry.

// known answers, use as guide
HuL10H2 (Fab, V domains shown, Humanized Fab expressed in Expi293F; also called VL10 + VH2 humanized Fab) VH: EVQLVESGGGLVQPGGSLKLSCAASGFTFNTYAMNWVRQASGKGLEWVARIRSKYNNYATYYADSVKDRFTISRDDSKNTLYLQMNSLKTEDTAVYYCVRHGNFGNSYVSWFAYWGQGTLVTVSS VL: QAVVTQEPSLTTSPGGTVTLTCRSSTGAVTTSNYANWVQQKPDHLFTGLIGGTNKRAPGVPARFSGSLIGDKAALTISGAQPEDEAEYYCALWYSNLWVFGGGTKLTVL
31300
HuL9H2 (Fab, V domains shown, Humanized Fab expressed in Expi293F; also called VL9 + VH2 humanized Fab) VH: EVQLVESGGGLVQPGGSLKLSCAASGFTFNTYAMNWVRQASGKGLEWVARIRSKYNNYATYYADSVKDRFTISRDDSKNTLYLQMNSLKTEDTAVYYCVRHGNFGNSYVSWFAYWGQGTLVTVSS VL: QAVVTQEPSLTVSPGGTVTLTCGSSTGAVTTSNYANWVQQKPGQAFRGLIGGTNKRAPGVPDRFSGSLLGGKAALTISGAQPEDEAEYYCALWYSNLWVFGGGTKLTVL
27900

Complete the entry with MFI for HuL1H1 (Fab, V domains shown, Detected with anti-human kappa; also called VL1 + VH1 humanized Fab) VH: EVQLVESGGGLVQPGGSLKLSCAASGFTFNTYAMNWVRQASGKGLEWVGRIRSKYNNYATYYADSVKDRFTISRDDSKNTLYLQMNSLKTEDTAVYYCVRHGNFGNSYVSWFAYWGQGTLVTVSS VL: QAVVTQEPSLTVSPGGTVTLTCGSSTGAVTTSNYANWFQQKPGQAPRTLIYGTNKRAPWTPARFSGSLLGGKAALTISGAQPEDEAEYYCALWYSNLWVFGGGTKLTVL 1460

All figures here come from patent US12252534.
